# TEST_DETAILS: Cytotoxicity against mouse RAW264.7 cells assessed as reduction in cell viability after 24 hrs by MTT assay
# Type: toxicity
Record form. Attribute: IC50 at 24 h. Fill in for each entry.
One number for each entry, in µg/mL.

Reference set, count: 3
CCCCCCCCC(=O)c1c(O)cc(O)c([C@@H](CC(C)C)C2=C(O)C(C)(C)C(=O)C(C)(C)C2=O)c1O: 8.2
CCCCCCCC(=O)c1c(O)cc(O)c([C@@H](CC(C)C)C2=C(O)C(C)(C)C(=O)C(C)(C)C2=O)c1O: 5.1
CCCCCCC(=O)c1c(O)cc(O)c([C@@H](CC(C)C)C2=C(O)C(C)(C)C(=O)C(C)(C)C2=O)c1O: 8.8

Proceeding to the next compound to report its IC50 at 24 h.
Need IC50 at 24 h of CCCCCCCCCCCC(=O)c1c(O)cc(O)c([C@@H](CC(C)C)C2=C(O)C(C)(C)C(=O)C(C)(C)C2=O)c1O , thanks.
7.9

---

# Tested on: Bacillus subtilis
# TEST_DETAILS: Antibacterial activity against Bacillus subtilis ATCC 11774 after 8 to 12 hrs by resazurin dye based microdilution method
# Format: functional
MEASURE: MIC (µg/mL)
Give bare numbers, in µg/mL.

Reference set, count: 8
CN[C@H](CC(C)C)C(=O)N[C@H]1C(=O)N[C@@H](CC(N)=O)C(=O)N[C@H]2C(=O)N[C@H]3C(=O)N[C@H](C(=O)N[C@H](C(=O)O)c4cc(O)cc(O)c4-c4cc3ccc4O)[C@H](O)c3ccc(c(Cl)c3)Oc3cc2cc(c3O[C@@H]2O[C@H](CO)[C@@H](O)[C@H](O)[C@H]2O[C@H]2C[C@](C)(N)[C@H](O)[C@H](C)O2)Oc2ccc(cc2Cl)[C@H]1O: 0.13
CCCCCCCCCCCCCCCC(=O)c1c(O)cc(O)c([C@@H](CC(C)C)C2=C(O)C(C)(C)C(=O)C(C)(C)C2=O)c1O: 16
CCCCCCCCC(=O)c1c(O)cc(O)c([C@@H](CC(C)C)C2=C(O)C(C)(C)C(=O)C(C)(C)C2=O)c1O: 0.25
CCCCCCCCCCCCCC(=O)c1c(O)cc(O)c([C@@H](CC(C)C)C2=C(O)C(C)(C)C(=O)C(C)(C)C2=O)c1O: 8
CCCCCCCCCC(=O)c1c(O)cc(O)c([C@@H](CC(C)C)C2=C(O)C(C)(C)C(=O)C(C)(C)C2=O)c1O: 0.25
CCCCCCCCCCCC(=O)c1c(O)cc(O)c([C@@H](CC(C)C)C2=C(O)C(C)(C)C(=O)C(C)(C)C2=O)c1O: 0.25
CCCCCCCCCCC(=O)c1c(O)cc(O)c([C@@H](CC(C)C)C2=C(O)C(C)(C)C(=O)C(C)(C)C2=O)c1O: 0.25
CCCCCCC(=O)c1c(O)cc(O)c([C@@H](CC(C)C)C2=C(O)C(C)(C)C(=O)C(C)(C)C2=O)c1O: 0.25

Proceeding to the next compound to report its MIC.
Need MIC of CCCCCCCC(=O)c1c(O)cc(O)c([C@@H](CC(C)C)C2=C(O)C(C)(C)C(=O)C(C)(C)C2=O)c1O , thanks.
0.13

---

# TEST_DETAILS: Cytotoxicity against mouse RAW264.7 cells assessed as reduction in cell viability after 24 hrs by MTT assay
# Assay type: toxicity
MEASURE: IC50 at 24 h (µg/mL)
Numbers only, in µg/mL.

Reference set, count: 3
CCCCCCCCCCCCCC(=O)c1c(O)cc(O)c([C@@H](CC(C)C)C2=C(O)C(C)(C)C(=O)C(C)(C)C2=O)c1O: 13.1
CCCCCCCCCCC(=O)c1c(O)cc(O)c([C@@H](CC(C)C)C2=C(O)C(C)(C)C(=O)C(C)(C)C2=O)c1O: 11.1
CCCCCCCCCC(=O)c1c(O)cc(O)c([C@@H](CC(C)C)C2=C(O)C(C)(C)C(=O)C(C)(C)C2=O)c1O: 5.1

Proceeding to the next molecule to report its IC50 at 24 h.
Need IC50 at 24 h of CCCCCCCCCCCCCCCC(=O)c1c(O)cc(O)c([C@@H](CC(C)C)C2=C(O)C(C)(C)C(=O)C(C)(C)C2=O)c1O , thanks.
17.5

---

# TEST_DETAILS: Selectivity ratio of IC50 for mouse RAW264.7 cells to MIC for methicillin-resistant Staphylococcus aureus JCSC 2172
# Format: ADME
MEASURE: selectivity ratio
Give bare numbers.

Count: 2. Required value per item: selectivity ratio.
1. CCCCCCCCCCCC(=O)c1c(O)cc(O)c([C@@H](CC(C)C)C2=C(O)C(C)(C)C(=O)C(C)(C)C2=O)c1O
2. CCCCCCCC(=O)c1c(O)cc(O)c([C@@H](CC(C)C)C2=C(O)C(C)(C)C(=O)C(C)(C)C2=O)c1O

15.8
20.4

Count: 2. Required value per item: selectivity ratio.
1. CCCCCCCCC(=O)c1c(O)cc(O)c([C@@H](CC(C)C)C2=C(O)C(C)(C)C(=O)C(C)(C)C2=O)c1O
2. CCCCCCCCCCCCCC(=O)c1c(O)cc(O)c([C@@H](CC(C)C)C2=C(O)C(C)(C)C(=O)C(C)(C)C2=O)c1O

1. 16.4
2. 13.1

---

Record form. Attribute: MIC. Fill in for each entry.
# Test system: Staphylococcus aureus
# TEST_DETAILS: Antibacterial activity against drug-susceptible Staphylococcus aureus ATCC 6538 after 8 to 12 hrs by resazurin dye based microdilution method
# Format: functional
Give bare numbers, in µg/mL.

Reference set, count: 2
CCCCCCCCCCCC(=O)c1c(O)cc(O)c([C@@H](CC(C)C)C2=C(O)C(C)(C)C(=O)C(C)(C)C2=O)c1O: 0.5
CCCCCCC(=O)c1c(O)cc(O)c([C@@H](CC(C)C)C2=C(O)C(C)(C)C(=O)C(C)(C)C2=O)c1O: 0.5

Proceeding to the next molecule to report its MIC.
Need MIC of CCCCCCCCCCCCCC(=O)c1c(O)cc(O)c([C@@H](CC(C)C)C2=C(O)C(C)(C)C(=O)C(C)(C)C2=O)c1O , thanks.
0.5

---

# TEST_DETAILS: Selectivity ratio of IC50 for mouse RAW264.7 cells to MIC for methicillin-resistant Staphylococcus aureus JCSC 2172
# Assay type: ADME
Record form. Attribute: selectivity ratio. Fill in for each entry.
One number for each entry.

Count: 3. Required value per item: selectivity ratio.
1. CCCCCCCCCC(=O)c1c(O)cc(O)c([C@@H](CC(C)C)C2=C(O)C(C)(C)C(=O)C(C)(C)C2=O)c1O
2. CCCCCCCCCCC(=O)c1c(O)cc(O)c([C@@H](CC(C)C)C2=C(O)C(C)(C)C(=O)C(C)(C)C2=O)c1O
3. CCCCCCC(=O)c1c(O)cc(O)c([C@@H](CC(C)C)C2=C(O)C(C)(C)C(=O)C(C)(C)C2=O)c1O

[20.4, 22.2, 16.7]

Need selectivity ratio of CCCCCCCCCCCCCCCC(=O)c1c(O)cc(O)c([C@@H](CC(C)C)C2=C(O)C(C)(C)C(=O)C(C)(C)C2=O)c1O , thanks.
17.5
